- targetDesc: Histone deacetylase 2 (Homo sapiens, UniProt Q92769)
- Sequence (Q92769 whole entry): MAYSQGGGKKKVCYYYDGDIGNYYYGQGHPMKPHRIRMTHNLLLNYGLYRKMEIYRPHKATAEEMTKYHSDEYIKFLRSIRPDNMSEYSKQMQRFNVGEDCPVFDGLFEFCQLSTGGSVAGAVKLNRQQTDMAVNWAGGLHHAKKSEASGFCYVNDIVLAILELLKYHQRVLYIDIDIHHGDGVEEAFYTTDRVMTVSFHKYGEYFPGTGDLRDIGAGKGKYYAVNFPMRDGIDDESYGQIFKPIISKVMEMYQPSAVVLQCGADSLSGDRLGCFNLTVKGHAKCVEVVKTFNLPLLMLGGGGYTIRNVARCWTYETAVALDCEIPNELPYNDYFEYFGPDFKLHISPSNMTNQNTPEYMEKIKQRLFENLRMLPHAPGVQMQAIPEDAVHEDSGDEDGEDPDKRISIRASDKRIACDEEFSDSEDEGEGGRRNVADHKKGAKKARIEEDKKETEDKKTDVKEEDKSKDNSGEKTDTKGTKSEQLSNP
- assayInfo: Inhibition of full-length recombinant human C-terminal GST tagged HDAC2 expressed in Sf9 insect cells using aminoluciferin peptide substrate at 100 nM preincubated for 3 hrs followed by substrate addition and measured after 30 mins by HDAC-Glo I/II chemiluminescence assay
- settings: time 3.5 hrs
endpointLabel: inhibition (%)

Below, 10 molecules whose answers are already recorded.
| molecule | inhibition / % |
| --- | --- |
| Nc1ccc(-c2cccs2)cc1NC(=O)c1ccc(-c2cn(CCc3ccccc3)nn2)s1 | 40 |
| CCc1ccc(Cn2cc(CCC(=O)Nc3cc(-c4ccc(F)cc4)ccc3N)nn2)cc1 | 2 |
| Nc1ccc(-c2cccs2)cc1NC(=O)c1cn(CCc2ccccc2[N+](=O)[O-])nn1 | 19 |
| COc1ccccc1CCn1cc(CCC(=O)Nc2cc(-c3ccc(F)cc3)ccc2N)nn1 | 10 |
| Nc1ccc(-c2ccccc2)cc1NC(=O)c1cn(CCCCCCC(=O)O)nn1 | 0 |
| Nc1ccc(-c2ccc(F)cc2)cc1NC(=O)CCc1cn(CCc2ccccc2[N+](=O)[O-])nn1 | 20 |
| Nc1ccc(-c2ccccc2)cc1NC(=O)CCc1cn(CCC2CCCCC2)nn1 | 0 |
| Nc1ccc(-c2ccccc2)cc1NC(=O)CCc1cn(CCc2cccc(C(F)(F)F)c2)nn1 | 1 |
| COc1ccccc1CCn1cc(C(=O)Nc2cc(-c3ccc(F)cc3)ccc2N)nn1 | 5 |
| Nc1ccc(-c2ccccc2)cc1NC(=O)c1cn(CCc2ccccc2C(F)(F)F)nn1 | 0 |

1 = Nc1ccc(-c2ccc(F)cc2)cc1NC(=O)CCc1cn(CCCCCC(=O)O)nn1
2 = Nc1ccc(-c2cccs2)cc1NC(=O)c1ccc(-c2cn(/C=C/c3ccccc3)nn2)s1
3 = Nc1ccc(-c2ccccc2)cc1NC(=O)CCc1cn(Cc2ccc3ccccc3c2)nn1
4 = Nc1ccc(-c2ccsc2)cc1NC(=O)CCc1cn(CCc2ccccc2[N+](=O)[O-])nn1
Please give the order of these molecules when sorted by inhibition, largest value leading. I would appreciate it if you listed the labels in the requested order.
4, 3, 2, 1
(4: 23%, 3: 11%, 2: 5%, 1: 0%)

A = Nc1ccc(-c2cccs2)cc1NC(=O)CCc1cn(CC2CCCCC2)nn1
B = Nc1ccc(-c2cccnc2)cc1NC(=O)CCc1cn(Cc2ccc(-c3ccccc3)cc2)nn1
Please indicate which has the smaller reported inhibition: A , or B . I would appreciate it if you answered with the label of your choice.
A
(A: 0%, B: 8%)

a = CCc1ccc(Cn2cc(-c3ccc(C(=O)Nc4cc(-c5cccs5)ccc4N)cc3)nn2)cc1
b = Nc1ccc(-c2cccs2)cc1NC(=O)c1cn(CS(=O)(=O)c2ccccc2)nn1
Returns: the argument ( a or b ) having the larger inhibition. I would appreciate it if you answered with the label of your choice.
b
(b: 17%, a: 0%)

a = Nc1ccc(-c2ccsc2)cc1NC(=O)CCc1cn(CC23CC4CC(CC(C4)C2)C3)nn1
b = Nc1ccc(-c2cccs2)cc1NC(=O)CCc1cn(CCc2ccccn2)nn1
Please indicate which has the smaller reported inhibition: a , or b . I would appreciate it if you answered with the label of your choice.
a

I = Nc1ccc(-c2ccc(F)cc2)cc1NC(=O)CCc1cn(C[S+]([O-])c2ccccc2)nn1 (centres undefined)
II = Cc1ccc(-n2cc(C(=O)Nc3cc(-c4ccc(F)cc4)ccc3N)nn2)cc1C
Returns: the argument ( I or II ) having the larger inhibition. I would appreciate it if you answered with the label of your choice.
I
(I: 17%, II: 11%)

a = Nc1ccc(-c2ccccc2)cc1NC(=O)CCc1cn(Cc2ccc3ccccc3n2)nn1
b = Nc1ccc(-c2ccccc2)cc1NC(=O)CCc1cn(CCc2cccc3ccccc23)nn1
c = Cc1cccc(CCn2cc(CCC(=O)Nc3cc(-c4ccc(F)cc4)ccc3N)nn2)c1
Please give the order of these molecules when sorted by inhibition, largest value leading. I would appreciate it if you listed the labels in the requested order.
c, a, b

1 = Nc1ccc(-c2cccs2)cc1NC(=O)c1ccc(-c2cn(Cc3ccc(OC(F)(F)F)cc3)nn2)s1
2 = Nc1ccc(-c2ccc(F)cc2)cc1NC(=O)CCc1cn(Cc2ccc3ccccc3c2)nn1
Returns: the argument ( 1 or 2 ) having the larger inhibition. I would appreciate it if you answered with the label of your choice.
2
(2: 15%, 1: 0%)

I = Nc1ccc(-c2ccc(F)cc2)cc1NC(=O)c1cn(CCc2ccc(Cl)cc2)nn1
II = Nc1ccc(-c2cccs2)cc1NC(=O)c1cn(Cc2ccc3ccccc3c2)nn1
Returns: the argument ( I or II ) having the larger inhibition. I would appreciate it if you answered with the label of your choice.
II
(II: 17%, I: 0%)

// data source = ChEMBL document CHEMBL5390237
